Measured IPGT TEST 0 min. (pre-load), plasma glucose, listed per entry for reference.
# System: Non-Obese Diabetic (NOD) mice
# method-description: Intraperitoneal Glucose Tolerance Test (IPGTT) in NOD mice
# Type: in vivo, mouse
# Parameters: unit not given here
# run-parameters: individual healthy NOD mice, 25 weeks after peptides
# output: bare number, no unit

# sequence-text, subject-of-test, measured-result
records = [
    ("RPKHPIKHQ [X]", "Non-Obese Diabetic (NOD) mice", 94),
    ("RPKHPIKHQGLPQE [B]", "Non-Obese Diabetic (NOD) mice", 130),
    ("RPKHPIKHQG [1a]", "Non-Obese Diabetic (NOD) mice", 88),
]

Turning to the following sequence.
Report IPGT TEST 0 min. (pre-load), plasma glucose, nothing else, for this sequence: RPKHPIKHQGL [2a] 95
